Test system: pentamethylenetetrazol convulsions
Test: Anticonvulsant effect (pentamethylenetetrazol perfusion)
Format: in vivo, mice (female)
Conditions: 1 mg/Kg i.p., 1 h before perfusion
measured_quantity: Dose of pentamethylenetetrazol, Myoclonia (mg/kg)

CCCN1C2Cc3ccccc3C1c1ccccc12 (stereo not drawn)    54.2
C#CCN1C2Cc3ccccc3C1c1ccccc12 (stereo not drawn)    41.9
CC(=O)CN1C2Cc3ccccc3C1c1ccccc12 (stereo not drawn)    47.7
CN1C2Cc3ccccc3C1c1ccccc12 (stereo not drawn)    38.1
OCCN1C2Cc3ccccc3C1c1ccccc12 (stereo not drawn)    40.6
CCN1C2Cc3ccccc3C1c1ccccc12 (stereo not drawn)    42.9

---

Test system: pentamethylenetetrazol convulsions
Assay: Anticonvulsant effect (pentamethylenetetrazol perfusion)
Assay type: in vivo, mice (female)
Details: 2 mg/Kg i.p., 1 h before perfusion
measured_quantity: Dose of pentamethylenetetrazol, Myoclonia (mg/kg)

C#CCN1C2Cc3ccccc3C1c1ccccc12 (centres unmarked)    41.2
C=CCN1C2Cc3ccccc3C1c1ccccc12 (centres unmarked)    44.8
CN1C2Cc3ccccc3C1c1ccccc12 (centres unmarked)    46.7
CCN1C2Cc3ccccc3C1c1ccccc12 (centres unmarked)    42.3
OCCN1C2Cc3ccccc3C1c1ccccc12 (centres unmarked)    38.6
ClCCN1C2Cc3ccccc3C1c1ccccc12 (centres unmarked)    45.9
CCCN1C2Cc3ccccc3C1c1ccccc12 (centres unmarked)    50.4
CC(=O)CN1C2Cc3ccccc3C1c1ccccc12 (centres unmarked)    57.7

---

Tested on: amphetamine deaths
Experiment: Amphetamine toxicity in mice
Assay type: in vivo, mice (female)
Conditions: 5 mg/Kg i.p., 1 h before 15 mg/kg amphetamine, mortality at 4 h
measured_quantity: ratio of number of dead animals to number of starting animals

ClCCN1C2Cc3ccccc3C1c1ccccc12 (centres unmarked) [Example 27]    10/10
OCCN1C2Cc3ccccc3C1c1ccccc12 (centres unmarked) [Example 6]    3/10
CC(=O)CN1C2Cc3ccccc3C1c1ccccc12 (centres unmarked) [Example 7]    2/10
CN1C2Cc3ccccc3C1c1ccccc12 (centres unmarked) [Example 15]    0/10
CCCN1C2Cc3ccccc3C1c1ccccc12 (centres unmarked) [Example 24]    10/10
C#CCN1C2Cc3ccccc3C1c1ccccc12 (centres unmarked) [Example 20]    9/10
CN1C2Cc3ccccc3C1c1ccc(Cl)cc12 (centres unmarked) [Example 26]    10/10
CCN1C2Cc3ccccc3C1c1ccccc12 (centres unmarked) [Example 21]    10/10

---

Tested on: DOPA
Assay: Potentialization of DOPA
Assay type: in vivo, mice (male)
Conditions: 10 mg/Kg i.p., 1 h before 50 mg/kg DOPA
Quick reference for total symptom score as percent of the total of control animals among some compounds
measured_quantity: total symptom score as percent of the total of control animals (%)

OCCN1C2Cc3ccccc3C1c1ccccc12 (centres unmarked)    140
CC(=O)CN1C2Cc3ccccc3C1c1ccccc12 (centres unmarked)    173
NCCN1C2Cc3ccccc3C1c1ccccc12 (centres unmarked)    113
CN(C)CC(=O)N1C2Cc3ccccc3C1c1ccccc12 (centres unmarked)    117
CN(C)CCN1C2Cc3ccccc3C1c1ccccc12 (centres unmarked)    81

---

System: pentamethylenetetrazol convulsions
Test: Anticonvulsant effect (pentamethylenetetrazol perfusion)
Assay type: in vivo, mice (female)
Settings: 2 mg/Kg i.p., 1 h before perfusion
Threshold 200 mg/kg: Dose of pentamethylenetetrazol, Tonic Crisis strictly smaller gives MET, otherwise NOT MET.

CC(=O)CN1C2Cc3ccccc3C1c1ccccc12 (centres unmarked) [Example 7]    MET
C=CCN1C2Cc3ccccc3C1c1ccccc12 (centres unmarked) [Example 19]    MET
CN1C2Cc3ccccc3C1c1ccccc12 (centres unmarked) [Example 15]    NOT MET
OCCN1C2Cc3ccccc3C1c1ccccc12 (centres unmarked) [Example 6]    MET
ClCCN1C2Cc3ccccc3C1c1ccccc12 (centres unmarked) [Example 27]    MET
C#CCN1C2Cc3ccccc3C1c1ccccc12 (centres unmarked) [Example 20]    MET
CCCN1C2Cc3ccccc3C1c1ccccc12 (centres unmarked) [Example 24]    NOT MET
CCN1C2Cc3ccccc3C1c1ccccc12 (centres unmarked) [Example 21]    NOT MET
